System: NCI-H460 lung
Assay remarks: NCI-60 one-dose screen, 48 h (100 = growth as untreated, 0 = no growth, -100 = all killed)
Condition summary: 10 µM unless noted
This is part of a sample that, as a whole, favours compounds with a hit. Of some 83,000 tested, about 20% had one in any assay.
Measurement type: growth (%)
Quick note: give the figure in %, leave out the unit.

// returns growth for CC1CC=CCC1C1OCC(C)(C)CO1 (stereo not given) with NCI-H460 lung; value = 109

# lookup: COC(=O)C1=CCC(n2cnc3c(N)ncnc32)O1 (stereo not given) on NCI-H460 lung, growth = 121

Kindly note: NCI-H460 lung, O=C(/C=C/c1ccc(C(F)(F)F)cc1)c1ccc(Nc2nc(NCCO)nc(NCCO)n2)cc1 , growth value reported: 82.8

Summary line: O=C(c1ccccc1)c1ccc(Oc2ccc([N+](=O)[O-])cc2[N+](=O)[O-])cc1 , NCI-H460 lung, reported growth = 103

Item O=C(O)c1ccc2cccnc2c1O ; assay system NCI-H460 lung; growth reported as 6.87

Simply: COC(=O)C1CCN(S(=O)(=O)c2ccc(-c3ccccc3)cc2)CC1 , NCI-H460 lung, growth = 110

The reported NCI-H460 lung growth of Cc1ccc(/C=C(/C#N)n2nnc3ncccc32)cc1 is -14

The reported growth value, NCI-H460 lung, for CCOc1cc(/C=C/C(=O)C(C(=O)/C=C/c2ccc(OC(=O)CNc3nc4ccccc4[nH]3)c(OCC)c2)C(=O)CNc2nc3ccccc3[nH]2)ccc1OC(=O)CNc1nc2ccccc2[nH]1 reads -27.3

# value of growth, NCI-H460 lung, item NC(=O)c1cc(Br)cc(Br)c1NS(=O)(=O)c1ccccc1 = 102

NCI-H460 lung data for O=C(N/N=C/c1cccc([N+](=O)[O-])c1)c1ccc(Br)o1 ; its growth: 114

----------
Test system: SK-MEL-28 melanoma
Assay remarks: NCI-60 one-dose screen, 48 h
Condition summary: 10 µM unless noted
About 83,000 compounds went through this panel and 20% of them were active in at least one assay; those are over-represented in the sample as a whole. Calls of active or inactive are those of the source. Rule for the calls: active = growth percent below 10; inactive = the rest.
Please state which outcome applies, choosing from t for active, f for inactive

Challenge: Recorded call for CSc1nc(-c2ccc(O)cc2O)c2c(=O)[nH]c(Nc3ccc(S(=O)(=O)Nc4nc(C)cc(C)n4)cc3)nc2n1 ?
Response given: f

Challenge: Give the logged outcome of this assay for the following molecule: CCOC(=O)Nc1cc(-c2ccc(C)c(NS(C)(=O)=O)c2)nn2c(C)nnc12
Response given: f

Challenge: What call does the record list for O=C(CSc1nnc(-c2cc(-c3ccccc3)nc3ccccc23)o1)c1ccc(Br)cc1 ?
Response given: f

Challenge: Recorded call for CCOC(=O)c1sc(NC(=O)COc2ccc(/C=C3\CCc4cc(OC)ccc4C3=O)cc2)nc1C ?
Response given: f

Challenge: State the result this test recorded for Nc1nc(Nc2ccccc2SSc2ccccc2Nc2nc(N)nc(-c3cccc(Cl)c3)n2)nc(-c2cccc(Cl)c2)n1 .
Response given: f

Challenge: Can you look up the reported call for COc1cccc(N2CCN(CC(=O)N3CCN(c4nnc(-c5ccc(Cl)cc5)c(-c5ccc(Cl)cc5)n4)CC3)CC2)c1 for me?
Response given: f

Challenge: State the result this test recorded for Nc1ccc2c(c1Br)Cc1ccccc1-2 .
Response given: f

Challenge: Outcome? CN1CCN(CCCCCN=c2cc3c(=O)n(CCCCCN4CCN(C)CC4)c(=O)c4c(NCCCCCN5CCN(C)CC5)cc5c(O)n(CCCCCN6CCN(C)CC6)c(=O)c2c5c4-3)CC1
Response given: t

Challenge: # lookup: test call for COc1cc(C(=O)/C=C/c2cccc(Nc3ccnc4cc(Cl)ccc34)c2)cc(OC)c1OC
Response given: t

Challenge: Assay result, entry Nc1ccc2c(c1)C(=O)c1cc(Cl)c(Cl)cc1-2 — outcome?
Response given: f

Challenge: Any idea what this test logged for Cn1c(=O)c2[nH]c(=S)n(Cc3ccccc3)c2n(C)c1=O ?
Response given: f

Challenge: Called result for O=c1[nH]c(N2CCC(Cc3ccccc3)CC2)nc2sc3c(c12)CCCC3
Response given: f

Challenge: Dear colleague, could you share the recorded outcome for O=C(/C=C/c1c(-c2ccccc2)[nH]c2ccccc12)S(=O)(=O)c1ccccc1 when you have a moment?
Response given: f

Challenge: Which outcome was entered for the molecule CC(=O)c1ccccc1NC(=O)C(C)(c1ccccc1)c1ccccc1 in this test?
Response given: f

Challenge: Any idea what this test logged for O=Nc1c2cccnc2n2nnc3ccc(Cl)cc3c12 ?
Response given: f

Challenge: I'd appreciate the recorded outcome for CC(=O)N1N=C(c2ccc(Cl)cc2)CC1c1c(C)nn(-c2ccccc2)c1N(C)Cc1ccccc1 (centres undefined) from this test.
Response given: f

Challenge: Kindly provide the recorded test outcome for the following molecule: Nc1nc(Nc2ccccc2SSc2ccccc2Nc2nc(N)nc(-c3ccc(I)cc3)n2)nc(-c2ccc(I)cc2)n1
Response given: f

Challenge: Just curious, what result did COc1cc2c(cc1OC)C(CC1(O)CCCCC1)N(S(=O)(=O)c1ccc(C)cc1)CC2 (centres undefined) get here?
Response given: f

Challenge: Each molecule tested received a call. Report the one for O=[N+]([O-])c1ccc2[nH]cc(-c3c4ccccc4cc4[nH]c5ccc([N+](=O)[O-])cc5c34)c2c1 .
Response given: f

----------
Test system: TK-10 renal
Assay remarks: NCI-60 one-dose screen, 48 h (100 = growth as untreated, 0 = no growth, -100 = all killed)
Condition summary: 10 µM unless noted
About 83,000 compounds went through this panel and 20% of them were active in at least one assay; those are over-represented in the sample as a whole. The source made the active and inactive calls. How the source made its calls: active means growth percent below 10; inactive means the rest.
Measurement type: growth

growth in this record for NC(=O)NC1(C(=O)O)CCCC1 : 108% (inactive)

Briefly, growth measured for COc1cccc(N2CCN(c3cccc(C)n3)CC2)c1 : 123% (inactive)

Field growth (entry O=C(N/N=C/c1cccc(O)c1)c1ccc(C(F)(F)F)nc1Nc1cccc(C(F)(F)F)c1 ) reads 15.6% (inactive)

Lab book: growth of COc1ccc(C2=NN(C=O)C(c3cccc(Nc4ccnc5cc(Cl)ccc45)c3)C2)cc1 (stereo unspecified) noted as 37.1% (inactive)

GET /value?item= C/C(=C\CCc1ccsc1)CC/C=C(\C)CCCN1CCSCC1 &field=growth returns 108% (inactive)

The reported value for O=Nc1c2cccnc2n2nnc3ccc(Cl)cc3c12 in terms of growth is 16.5% (inactive)

Note to self: growth recorded for CCCCCCCCCCCCCCCCCC1=NC(C)(CO)CO1 (stereo unspecified) was 87.1% (inactive)

For reference, reported growth for Cc1ccc(OCC(=O)Nc2ccc(Oc3ccccc3)cc2)c([N+](=O)[O-])n1 stands at 92.2% (inactive)

growth reading for COc1ccc2c(c1)[n+](=O)c(/C=C/C(=O)c1cc(OC)c(OC)c(OC)c1)c(C)n2[O-] : 62.9% (inactive)

growth reading for CC(=O)c1ccccc1NC(=O)C(C)(c1ccccc1)c1ccccc1 : 110% (inactive)

Note to self: growth recorded for O=C(CNC(=O)c1cccc2ccccc12)Nc1ccccc1Oc1cccc(O)c1 was 42% [5 µM] (inactive)

----------
System: NCI/ADR-RES ovarian
Assay remarks: NCI-60 one-dose screen, 48 h
Condition summary: 10 µM unless noted
The panel holds about 83,000 compounds, 20% with a hit somewhere; the sample as a whole holds those more often. Calls of active or inactive are those of the source. Rule for the calls: active = growth percent below 10; inactive = the rest.
The categories you may choose from are TRUE (active), FALSE (inactive)

Challenge: Which outcome was assigned to CC(=O)N1N=C(c2ccc(Nc3nc(NCCO)nc(NCCO)n3)cc2)CC1c1ccc(Cl)cc1 (centres undefined) in this test?
Response given: FALSE

Challenge: # lookup: test call for COc1ccc(OC)c(CCn2cncc2-c2c[nH]c3cc(Br)ccc23)c1
Response given: FALSE

Challenge: State the result this test recorded for CCOC(=O)c1cc2oc(/C=C/c3cc(=O)c4cc(Cl)ccc4o3)cc2[nH]1 .
Response given: FALSE

Challenge: Name the outcome recorded for COc1ccc(CCN2C(=O)CCC3=C2CCCC3=O)cc1OC in the assay.
Response given: FALSE

Challenge: Hi, do you know how OCCN1CCN(CCCN2c3ccccc3Sc3ccc(C(F)(F)F)cc32)CC1 came out in this test?
Response given: FALSE

Challenge: Just curious, what result did CCCCCN1C(=O)CCC1=O get here?
Response given: FALSE

Challenge: Short answer needed: outcome of this test for N#Cc1ccc(-c2csc(Nc3ccc4nc5n(c(=O)c4c3)CCC5)n2)cc1 ?
Response given: FALSE

Challenge: How did this test come out for N#Cc1c(NC(=O)c2ccco2)[n+]([O-])c2ccccc2[n+]1[O-] ?
Response given: FALSE

Challenge: For CC(=O)Nc1cc(C(c2ccccc2)c2ccccc2)cc(C(c2ccccc2)c2ccccc2)c1C , which call appears in the assay record?
Response given: FALSE

Challenge: Query: recorded result category for N/C(=N\c1nc2ccccc2s1)NC(=O)Nc1ccccc1Cl in this test
Response given: TRUE

Challenge: Just curious, what result did Cc1n(Cc2ccc3ccccc3c2)c2ccccc2[n+]1Cc1ccc2ccccc2c1 get here?
Response given: FALSE

Challenge: What did this assay record as the result for Fc1ccc(-c2nn3c(-c4cc(C(F)(F)F)cc(C(F)(F)F)c4)nnc3s2)cc1 ?
Response given: FALSE

Challenge: Kindly provide the recorded test outcome for the following compound: C[C@H](C(=O)N[C@@H](Cc1ccc(-c2ccccc2)cc1)C(=O)NC1CC(C)(C)N(C)C(C)(C)C1)c1ccc(-c2ccccc2)c(F)c1
Response given: TRUE

Challenge: Lab log entry: CN[C@@H]1C(OC2[C@H](O[C@H]3[C@H](O)[C@@H](O)[C@H](N=C(N)N)[C@@H](O)[C@@H]3N=C(N)N)OC(C)[C@]2(O)CO)OC(CO)C(O)C1O (some centres undefined) — outcome as called in the assay?
Response given: FALSE

Challenge: Hi team, can someone confirm the assay call for C=C(CN1CCc2c([nH]c3ccccc23)C1)c1ccc(C(=O)Nc2ccon2)cc1 ?
Response given: FALSE

Challenge: For this compound, state the assay outcome: COC(=O)N/N=C/c1coc2ccc(Cl)cc2c1=O
Response given: FALSE

Challenge: # outcome recorded in this test, key = COc1ccc(-c2cc(-c3cccnc3)nc3sc(C(=O)Nc4ccccc4)c(N)c23)cc1OC
Response given: FALSE

Challenge: Could you please tell me the result logged for COc1cccc(N2CCN(CC(=O)N3CCN(c4nnc(-c5ccc(Cl)cc5)c(-c5ccc(Cl)cc5)n4)CC3)CC2)c1 in this assay?
Response given: FALSE

Challenge: Which outcome did this test record for the compound [N-]=[N+]=NCc1cccc(/C(O)=C/C(=O)C(=O)O)c1 ?
Response given: FALSE

Challenge: Identify the outcome logged in this assay for the compound shown: COc1ccc(NC(=O)[C@@H]2C[C@H]2c2ccccc2)c(C(N)=O)c1
Response given: FALSE

Challenge: // outcome(item) with item = CCOC(=O)Nc1cc(-c2ccc(C)c(NS(C)(=O)=O)c2)nn2c(C)nnc12
Response given: FALSE

Challenge: Please share the test call associated with COc1ccc(CC(=O)Nc2nn3c(-c4cc(C(F)(F)F)cc(C(F)(F)F)c4)nnc3s2)cc1 .
Response given: FALSE

Challenge: # fetch the recorded call for O=C(C(=O)N1CCOCC1)c1cn(CCCn2cc(C(=O)C(=O)N3CCOCC3)c3ccccc32)c2ccccc12 here
Response given: FALSE

Challenge: Could you please tell me the result logged for NS(=O)(=O)c1cc2c(cc1Cl)NC=NS2(=O)=O in this assay?
Response given: FALSE

Challenge: Hi team, can someone confirm the assay call for O=C(COc1ccc(/C=C2\Oc3ccc4ccccc4c3C2=O)cc1)c1ccc([N+](=O)[O-])cc1 ?
Response given: FALSE

Challenge: Hey, what did the test say about Cc1sc2nc(NCc3ccccc3)[nH]c(=O)c2c1C ?
Response given: FALSE

Challenge: Just curious, what result did CCOC(=O)Nc1ccc2c3c(cccc13)-c1ccccc1-2 get here?
Response given: TRUE

Challenge: Returns: the outcome recorded for O=C1/C(=C/c2ccccc2O)C(=S)SN1Cc1ccco1 in this assay.
Response given: FALSE

Challenge: What call does the record list for O=c1c2c(=NCCCN3CCCC3)cc3c(=O)n(CCCN4CCCC4)c(=O)c4c(NCCCN5CCCC5)cc(c(O)n1CCCN1CCCC1)c2c4-3 ?
Response given: FALSE

Challenge: GET /call?item= O=C(Nc1cccc(Cl)c1)Nc1cccc(Cl)c1 returns the recorded outcome of this test.
Response given: FALSE

Challenge: Recorded test outcome, item COc1cnc2c(c1)C(=O)c1c-2n(CCCN2CCOCC2)c(=O)c2cc(F)ccc12
Response given: TRUE

Challenge: Returns: the outcome recorded for COc1ccc(-c2c3c(N)nc(-c4ccncc4)nc3nc3c2c(C)nn3-c2ccccc2)cc1 in this assay.
Response given: FALSE

Challenge: // outcome(item) with item = COc1cnc2c(c1)C(=O)c1c-2n(CCCN2CCC(O)CC2)c(=O)c2cc(F)ccc12
Response given: TRUE

Challenge: # outcome recorded in this test, key = O=C1Nc2ccc(C(=O)O)c(O)c2C1=O
Response given: FALSE

Challenge: How was COc1ccc2ncccc2c1Cc1c(OC)ccc2ncccc12 classified in this test?
Response given: FALSE

Challenge: # fetch the recorded call for CN1CCC[C@@H]1CCO[C@](C)(c1ccccc1)c1ccc(Cl)cc1 here
Response given: FALSE

Challenge: Called result for CCN1CC2=C(Nc3nc(SC)[nH]c(=O)c3C2c2cc(OC)c(OC)c(OC)c2)/C(=C/c2cc(OC)c(OC)c(OC)c2)C1 (centres undefined)
Response given: FALSE

Challenge: So what was the verdict on C=C1CCC2C(C)(COC(=O)CC)C(OC(=O)CC)CCC2(C)C1C/C=C1/C(=O)OCC1OC(=O)CC (centres undefined) in this test?
Response given: TRUE

Challenge: Would you mind telling me which call this test gave NS(=O)(=O)N(c1cc(C(F)(F)F)cc(C(F)(F)F)c1)C1CCN(Cc2ccc(C(F)(F)F)cc2)CC1 ?
Response given: FALSE
